Each record here notes measured Ki.
# target: human Orexin-2 receptor (Homo sapiens)
# Construct: expressed in transfected cells; host or cells: HEK293 cells (transient transfection, Genejuice); membranes
# Sequence (O43614 whole entry): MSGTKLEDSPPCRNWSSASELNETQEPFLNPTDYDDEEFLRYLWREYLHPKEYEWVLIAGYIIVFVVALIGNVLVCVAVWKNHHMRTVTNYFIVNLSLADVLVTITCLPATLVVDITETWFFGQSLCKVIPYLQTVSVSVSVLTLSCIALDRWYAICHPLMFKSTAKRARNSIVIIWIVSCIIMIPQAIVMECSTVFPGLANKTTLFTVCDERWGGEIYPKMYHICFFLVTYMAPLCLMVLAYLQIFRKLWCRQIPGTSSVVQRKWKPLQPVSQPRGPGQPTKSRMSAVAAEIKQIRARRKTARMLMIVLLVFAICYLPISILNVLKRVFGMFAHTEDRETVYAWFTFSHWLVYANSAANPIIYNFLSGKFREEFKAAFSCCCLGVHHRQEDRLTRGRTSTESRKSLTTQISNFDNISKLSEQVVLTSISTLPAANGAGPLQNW
# protocol.text: 3H-EMPA radioligand binding assay
# condition.context: 3H-EMPA displacement, membranes of HEK293 cells transfected with human Orexin-2 receptor; KI by Cheng-Prussoff; read-out: OX2 pKi ave (converted)
Write it as a number; the unit nM goes unstated.

Worked examples, 3 molecules total:
INSERT INTO measurements (compound, observable, numeric_result) VALUES
  ('COc1cc(N2C(=O)N(Cc3c(F)cc(F)cc3F)c3ncccc3S2(=O)=O)cc(OC)n1', 'Ki', 1.48),
  ('O=C1N(Cc2c(F)cccc2Cl)c2ccccc2S(=O)(=O)N1c1ccc(F)cc1', 'Ki', 31.6),
  ('COc1cc(F)c(CN2C(=O)N(c3cc(OC)nc(OC)c3)S(=O)(=O)c3cccnc32)c(F)c1', 'Ki', 1.38);

Now for a further molecule.
Any idea what its Ki is? The molecule is CSc1cccc(N2C(=O)N(Cc3c(F)cc(F)cc3Cl)c3ccccc3S2(=O)=O)c1
2.69
